- EXPERIMENT: COS7 lysate on small-molecule microarray, probe aHis, 635 nm (AID 1123);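 also: z-score combines 667nm fluorescence intensity with signal-to-noise per printed compound spot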
- PARTICULARS: COS7 cell lysate, fluorescence, higher = more signal
ENDPOINT_LABEL: composite z-score

{"MOLECULE": "CN1C(=O)C2C=CC(C(O)c3ccccc3)N(Nc3ccccc3)C2C1=O (stereo not given)", "RECORDED_RESULT": 2.45}
{"MOLECULE": "O=C1NCC(=O)N2[C@@H]1C[C@@H](C(=O)O)[C@H]2c1cccc(OCCO)c1", "RECORDED_RESULT": 5.25}
{"MOLECULE": "O=C1NC(=O)C2C1C=CC(C(O)Cc1ccccc1)N2Nc1ccc(Cl)cc1Cl (stereo not given)", "RECORDED_RESULT": 2.07}
{"MOLECULE": "CC1CC/C=C\\[C@H]2OC34C=CCN(c5ccc(Cl)cc5)C(=O)[C@H]3N(CCO)C(=O)[C@]4(C)C2C(=O)O1 (stereo not given in full)", "RECORDED_RESULT": -0.507}
{"MOLECULE": "COCCOC(=O)N1C(=O)[C@@]2(c3cc(C#CCCO)ccc31)[C@H](C(=O)N1CCN(c3ncccn3)CC1)[C@H]1C(=O)O[C@H](c3ccccc3)[C@H](c3ccccc3)N1[C@@H]2c1ccccc1OCCO", "RECORDED_RESULT": 1.76}
{"MOLECULE": "Cc1ccc(S[C@]2(C(=O)NC3CC3)CC(=O)N(C3Cc4ccccc4C3)[C@@H]2c2ccc(CO)cc2)cc1", "RECORDED_RESULT": 1.81}
{"MOLECULE": "[N-]=[N+]=Nc1ccccc1C[C@@]1(C(=O)NCCN2CCOCC2)N=C(c2ccc(OCCCO)cc2)O[C@@H]1c1ccccc1", "RECORDED_RESULT": 2.87}
{"MOLECULE": "COCCOC(=O)N1C(=O)[C@@]2(c3cc(C#CC4=CCCCC4)ccc31)[C@H](c1ccc(O)cc1)N1[C@H](c3ccccc3)[C@H](c3ccccc3)OC(=O)[C@H]1[C@@H]2C(N)=O", "RECORDED_RESULT": 1.16}
{"MOLECULE": "CN1C2C=C(CCCO)C(C3C(=O)N(C(N)=O)C(=O)C32)C1c1ccc(CN2CCCC2)cc1 (stereo not given)", "RECORDED_RESULT": -0.0732}
{"MOLECULE": "CCCN1C(=O)[C@]2(CCS(=O)(=O)c3ccccc3)N=C(c3ccc(OCCCO)cc3)O[C@@H]2c2ccccc21", "RECORDED_RESULT": 1.15}
{"MOLECULE": "C=CC[C@@]1(C(=O)NCc2ccccc2)N=C(c2ccc(OCCCO)cc2)O[C@@H]1c1ccccc1N=[N+]=[N-]", "RECORDED_RESULT": 3.18}
{"MOLECULE": "CCOC1=C2C(CN(S(=O)(=O)c3ccc(C)cc3)C2c2ccc(C)cc2)C2C(=O)N(c3ccccc3)C(=O)C2C1 (stereo not given)", "RECORDED_RESULT": 1.58}
{"MOLECULE": "O=C1[C@H]2C=C(Br)[C@H](C[C@@H]2OCCCCO)[C@@]12CO2", "RECORDED_RESULT": -0.574}
{"MOLECULE": "COc1ccc([Si](C)(C)[C@H]2[C@H](CC(=O)N3CCC[C@H]3CO)O[C@@]3(C(=O)N(Cc4cccc(N5C(=O)c6cccc7cccc5c67)c4)c4ccccc43)[C@@H]2C)cc1", "RECORDED_RESULT": 1.53}
{"MOLECULE": "COCCOC(=O)N1C(=O)[C@@]2(c3cc(C#Cc4ccc(OC)cc4)ccc31)[C@H](C(N)=O)[C@H]1C(=O)O[C@H](c3ccccc3)[C@H](c3ccccc3)N1[C@@H]2c1ccccc1OCCO", "RECORDED_RESULT": 2.54}
